List of Neu values.
organism: Rattus norvegicus; assay: Open TG-GATES - Regimen: Single; assay type: toxicity, organism-based, Sprague-Dawley; design: regimen Single, gender Male, age 6 weeks; details: in vivo, po, 0 mg/kg, 9 h, tissue Blood, route gavage, dose level Control
The figure you give is taken to be in %; do not add the unit.

Solved cases below.
# COMPOUND, Neu, %
data = [
    ("CCc1oc2ccccc2c1C(=O)c1cc(Br)c(O)c(Br)c1", 19.6),
    ("O=NN(CCCl)C(=O)NC1CCCCC1", 14),
    ("CC[C@H]1[C@@H]2C[C@H]3[C@@H]4N(C)c5ccccc5[C@]45C[C@@H]([C@@H]2[C@H]5O)N3[C@@H]1O", 11.6),
    ("CN(C)CCC=C1c2ccccc2COc2ccccc21 [DOXEPIN]", 18.6),
]

Now for another entry.
# input For CC1=C(CC(=O)O)c2cc(F)ccc2/C1=C\c1ccc([S+](C)[O-])cc1 (stereo not given) , what is its reported Neu?
# output 15

====

species on record: Rattus norvegicus; assay: Open TG-GATES - Regimen: Single; format: toxicity, organism-based, Sprague-Dawley; set-up: regimen Single, gender Male, age 6 weeks; conditions: in vivo, po, 0 mg/kg, 3 h, tissue Blood, route gavage, dose level Control
List of Plat values.

# MOLECULE, QUANTITY NAME, ASSAY VALUE
records = [
    ("OCCOCCN1CCN(C(c2ccccc2)c2ccc(Cl)cc2)CC1 (stereo not given) [HYDROXYZINE]", "Plat", "120.7 x10_4/uL"),
    ("CN(C)C(=N)N=C(N)N", "Plat", "111.6 x10_4/uL"),
    ("CN(C)CCC=C1c2ccccc2COc2ccccc21 [DOXEPIN]", "Plat", "123.1 x10_4/uL"),
]

# input For CCc1oc2ccccc2c1C(=O)c1cc(Br)c(O)c(Br)c1 , what is its reported Plat?
# output 104.6 x10_4/uL

# input Continue with CC1=C(CC(=O)O)c2cc(F)ccc2/C1=C\c1ccc([S+](C)[O-])cc1 (stereo not given)
# output 116.8 x10_4/uL

# input Continue with ClC(Cl)(Cl)Cl [CARBON TETRACHLORIDE]
# output 132.6 x10_4/uL

# input Continue with CC[C@H]1[C@@H]2C[C@H]3[C@@H]4N(C)c5ccccc5[C@]45C[C@@H]([C@@H]2[C@H]5O)N3[C@@H]1O
# output 109.9 x10_4/uL

# input Continue with O=NN(CCCl)C(=O)NC1CCCCC1
# output 100.4 x10_4/uL

# input Continue with CCC1(c2ccccc2)C(=O)NC(=O)NC1=O
# output 113.7 x10_4/uL

# input Continue with CC(C)N(CCC(C(N)=O)(c1ccccc1)c1ccccn1)C(C)C (stereo not given) [DISOPYRAMIDE]
# output 117.3 x10_4/uL

====

List of Ret values.
species on record: Rattus norvegicus; assay: Open TG-GATES - Regimen: Single; assay type: toxicity, organism-based, Sprague-Dawley; design: regimen Single, gender Male, age 6 weeks; details: in vivo, po, 0 mg/kg, 3 h, tissue Blood, route gavage, dose level Control
The figure you give is taken to be in %; do not add the unit.

# MOLECULE, ASSAY VALUE
rows = [
    ("CCC1(c2ccccc2)C(=O)NC(=O)NC1=O", 7.9),
    ("CC(C)N(CCC(C(N)=O)(c1ccccc1)c1ccccn1)C(C)C (stereo not given) [DISOPYRAMIDE]", 8),
]

# input For CN(C)CCC=C1c2ccccc2COc2ccccc21 [DOXEPIN] , what is its reported Ret?
# output 8.4

# input Continue with ClC(Cl)(Cl)Cl [CARBON TETRACHLORIDE]
# output 8.6

# input Continue with O=NN(CCCl)C(=O)NC1CCCCC1
# output 8.5

====

List of Ca values.
species: Rattus norvegicus; test: Open TG-GATES - Regimen: Daily Repeat; assay type: toxicity, organism-based, Sprague-Dawley; set-up: regimen Daily Repeat, gender Male, age 6 weeks; conditions: in vivo, po, 0 mg/kg, […], tissue Plasma, route gavage, dose level Control, time 28 day
The figure you give is taken to be in mg/dL; do not add the unit.

Solved cases below.
# COMPOUND, QUANTITY NAME, ASSAY VALUE
rows = [
    ("CCc1oc2ccccc2c1C(=O)c1cc(Br)c(O)c(Br)c1", "Ca", 9.7),
    ("CCCCc1oc2ccccc2c1C(=O)c1cc(I)c(OCCN(CC)CC)c(I)c1", "Ca", 10.4),
    ("CCC1(c2ccccc2)C(=O)NC(=O)NC1=O", "Ca", 10.4),
]

# input For O=NN(CCCl)C(=O)NC1CCCCC1 , what is its reported Ca?
# output 10.8

# input Continue with CC(C)N(CCC(C(N)=O)(c1ccccc1)c1ccccn1)C(C)C (stereo not given) [DISOPYRAMIDE]
# output 10.4

====

organism: Rattus norvegicus; assay: Open TG-GATES - Regimen: Daily Repeat; assay type: toxicity, organism-based, Sprague-Dawley; set-up: regimen Daily Repeat, gender Male, age 6 weeks; conditions: in vivo, po, 0 mg/kg, […], tissue Plasma, route gavage, dose level Control, time 28 day
List of DBIL values.
The figure you give is taken to be in mg/dL; do not add the unit.

# COMPOUND, UNITS OF MEASURE, DBIL
measured = [
    ("CC(C)N(CCC(C(N)=O)(c1ccccc1)c1ccccn1)C(C)C (stereo unspecified) [DISOPYRAMIDE]", "mg/dL", 0),
    ("CCC1(c2ccccc2)C(=O)NC(=O)NC1=O", "mg/dL", 0.006),
    ("CCCCc1oc2ccccc2c1C(=O)c1cc(I)c(OCCN(CC)CC)c(I)c1", "mg/dL", 0.1),
    ("ClC(Cl)(Cl)Cl [CARBON TETRACHLORIDE]", "mg/dL", 0.07),
    ("OCCOCCN1CCN(C(c2ccccc2)c2ccc(Cl)cc2)CC1 (stereo unspecified) [HYDROXYZINE]", "mg/dL", 0.016),
]

# input For O=NN(CCCl)C(=O)NC1CCCCC1 , what is its reported DBIL?
# output 0.012

# input Continue with CN(C)CCC=C1c2ccccc2COc2ccccc21 [DOXEPIN]
# output 0.024

# input Continue with CCc1oc2ccccc2c1C(=O)c1cc(Br)c(O)c(Br)c1
# output 0.006

# input Continue with CN(C)C(=N)N=C(N)N
# output 0.014

# input Continue with CC[C@H]1[C@@H]2C[C@H]3[C@@H]4N(C)c5ccccc5[C@]45C[C@@H]([C@@H]2[C@H]5O)N3[C@@H]1O
# output 0.016

# input Continue with CC1=C(CC(=O)O)c2cc(F)ccc2/C1=C\c1ccc([S+](C)[O-])cc1 (stereo unspecified)
# output 0.012

====

organism: Rattus norvegicus; assay: Open TG-GATES - Regimen: Single; assay type: toxicity, organism-based, Sprague-Dawley; design: regimen Single, gender Male, age 6 weeks; settings: in vivo, po, 100 mg/kg, 24 h, tissue Blood, route gavage, dose level Low
QUANTITY NAME: Ht (%)
The figure you give is taken to be in %; do not add the unit.

# COMPOUND, Ht / %
records = [
    ("O=NN1CCOCC1", 41.7),
    ("CN(C)C(=N)N=C(N)N", 38.6),
    ("CCC1(c2ccccc2)C(=O)NC(=O)NC1=O", 37.2),
]

# input For CN(C)CCC=C1c2ccccc2COc2ccccc21 [DOXEPIN] , what is its reported Ht?
# output 41.3

====

List of A/G values.
organism: Rattus norvegicus; experiment: Open TG-GATES - Regimen: Daily Repeat; format: toxicity, organism-based, Sprague-Dawley; design: regimen Daily Repeat, gender Male, age 6 weeks; conditions: in vivo, po, 0 mg/kg, […], tissue Plasma, route gavage, dose level Control, time 7 day
The reply should be a number, written without any unit.

Solved cases below.
# MOLECULE, ASSAY VALUE
data = [
    ("O=NN(CCCl)C(=O)NC1CCCCC1", 1.8),
    ("CC1=C(CC(=O)O)c2cc(F)ccc2/C1=C\\c1ccc([S+](C)[O-])cc1 (configuration not stated)", 0.9),
    ("CCc1oc2ccccc2c1C(=O)c1cc(Br)c(O)c(Br)c1", 1.7),
    ("OCCOCCN1CCN(C(c2ccccc2)c2ccc(Cl)cc2)CC1 (configuration not stated) [HYDROXYZINE]", 0.8),
    ("ClC(Cl)(Cl)Cl [CARBON TETRACHLORIDE]", 1.7),
]

# input For CC[C@H]1[C@@H]2C[C@H]3[C@@H]4N(C)c5ccccc5[C@]45C[C@@H]([C@@H]2[C@H]5O)N3[C@@H]1O , what is its reported A/G?
# output 1.9

# input Continue with CCC1(c2ccccc2)C(=O)NC(=O)NC1=O
# output 1.5
